Assay: In vitro flux of drug from saturated test solutions through human cadaver skin into an infinite sink, Franz diffusion cell
Format: in vitro ADME
Settings: Table 4; saturated in 100 wt. % methyl laurate
Entries and their Flux, Solution A values follow.
Give the quantity in μg/cm^2 /day, number only.

Examples from the recorded data:
{"Molecule": "COC(=O)C1=C(C)NC(C)=C(C(=O)OC)C1c1ccccc1[N+](=O)[O-] [Nifedipine]", "Flux, Solution A, μg/cm^2 /day": 15}
{"Molecule": "CC(C)Cc1ccc(C(C)C(=O)O)cc1 (stereo not shown) [Ibuprofen]", "Flux, Solution A, μg/cm^2 /day": 586}
{"Molecule": "C[C@]12C=CC(=O)C=C1CC[C@@H]1[C@@H]2[C@@H](O)C[C@@]2(C)[C@H]1CC[C@]2(O)C(=O)CO [Prednisolone]", "Flux, Solution A, μg/cm^2 /day": 51}

Next molecule, Flux, Solution A to be filled in.
The reported value for C[C@]12CC[C@@H]3c4ccc(O)cc4CC[C@H]3[C@@H]1CC[C@@H]2O [Estradiol] in terms of Flux, Solution A is 4.3
